Assayed Target: human DDAH1 (Homo sapiens (Human), UniProt O94760)
Sequence (O94760 whole entry): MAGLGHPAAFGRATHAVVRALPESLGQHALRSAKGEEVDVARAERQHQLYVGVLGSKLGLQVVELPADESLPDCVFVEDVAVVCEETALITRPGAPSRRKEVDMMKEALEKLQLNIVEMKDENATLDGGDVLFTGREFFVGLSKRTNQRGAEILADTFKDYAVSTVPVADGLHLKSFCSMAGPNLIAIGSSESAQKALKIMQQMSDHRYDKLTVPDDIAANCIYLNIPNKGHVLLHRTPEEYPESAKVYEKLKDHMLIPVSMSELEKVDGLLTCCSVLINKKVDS
Test Protocol: Fluorimetric CPM assay of DDAH activity (SMTC substrate)
Format: biochemical
Condition: CPM assay, 100 μM SMTC; Assay Explorer software; read-out: IC50
Result Type: IC50 (µM)
Numbers only, in µM.

Lab note: compound CN=c1nc(-c2ccccc2)n(-c2ccccc2)s1 [SCH-202676] tested on human DDAH1 (Homo sapiens (Human), UniProt O94760); recorded IC50 was 13.3

For the next question, use this compound.
Lab note: compound COc1cnn(-c2ccccc2)c(=O)c1S [4-MMP] tested on human DDAH1 (Homo sapiens (Human), UniProt O94760); recorded IC50 was 12.7
